Experimental protocol: Spectroscopic measurements (absorption, emission, quantum yield, extinction coefficient)
Type: physicochemical
Protocol conditions: BDNCA library, extinction coefficient; in M-1 cm-1 (unit assumed)
Measured ε of individual entries

INSERT INTO assay_data (sample_smiles, reported_value) VALUES
  ('Cc1cc(/C=C/c2ccc(OCc3ccc(Br)cc3)cc2)n2c1C(c1ccc(NC(=O)CCl)cc1)=C1C=CC=[N+]1[B-]2(F)F', '36,247'),
  ('COc1cc(/C=C/C2=[N+]3C(=C(c4ccc(NC(=O)CCl)cc4)c4cccn4[B-]3(F)F)C(C)=C2)cc(OC)c1OC(C)=O', '15,652'),
  ('CC1=CC(/C=C/c2ccc(-c3ccccc3)s2)=[N+]2C1=C(c1ccc(NC(=O)CCl)cc1)c1cccn1[B-]2(F)F', '30,755'),
  ('CC1=CC(/C=C/c2ccc(OCc3ccccc3)cc2)=[N+]2C1=C(c1ccc(NC(=O)CCl)cc1)c1cccn1[B-]2(F)F', '20,046'),
  ('CC1=CC(/C=C/c2ccccc2)=[N+]2C1=C(c1ccc(NC(=O)CCl)cc1)c1cccn1[B-]2(F)F', '73,318'),
  ('CC1=CC(/C=C/c2cccc(Oc3ccccc3)c2)=[N+]2C1=C(c1ccc(NC(=O)CCl)cc1)c1cccn1[B-]2(F)F', '51,625');

Now for another entry.
Notebook: CC1=CC(/C=C/c2ccc(C)c3ccccc23)=[N+]2C1=C(c1ccc(NC(=O)CCl)cc1)c1cccn1[B-]2(F)F , ε read as 30,755
